Tested on: SW-620 colon
measurementDescription: NCI-60 one-dose screen, 48 h (100 = growth as untreated, 0 = no growth, -100 = all killed)
conditions: 10 µM unless noted
Method: Growth inhibition of the SW-620 human tumor cell line is measured as a screen for anti-cancer activity. Cells are grown in 96 well plates and exposed to the test compound for 48 hours. Compounds are tested at a single concentration, which is 10^-5 M for most compounds. The reported endpoint is percent growth (GI% or GIPRCNT), where numbers from 0 - 100% represent growth inhibition, and numbers from -100% - 0 represent cell death. For example, a value of 40 represents 60% growth inhibition. […]
The panel holds about 83,000 compounds, 20% with a hit somewhere; the sample as a whole holds those more often.
Would you kindly list growth for each of these molecules?
Give bare numbers, in %.

Reference set (5 entries):
NC1=NC(SCc2ccccc2CCl)c2ncn(Cc3ccccc3CCl)c2N1 (centres undefined) ... 2.06
NC(=N\N=C/c1ccc(O)cc1)/C(N)=N\N=C/c1ccc(O)cc1 ... 40.8
COc1ccc(/C=N\NC(=O)CN2CCN(c3cc4c(cc3F)c(=O)c(C(=O)N/N=C/c3ccc(OC)c(OC)c3)cn4C3CC3)CC2)cc1OC ... 4.64
COc1cc(-c2nn(C(=O)NS(=O)(=O)c3ccccc3)cc2-c2ccncc2)ccc1Cl ... 112
Nc1nc(Nc2cc(Cl)cc(Cl)c2)nn1S(=O)(=O)c1ccc2ccccc2c1 ... 67.6

Working through the 3 molecules below one at a time, give growth for each.
1. COc1ccc(-c2c(-c3cc(OC)c4c(c3)OCO4)noc2N)cc1
2. COc1cc(NC(=O)SC2=NCCS2)cc(OC)c1
3. O=c1[nH]c2ccc(Br)cc2c2c1C(c1ccc(Cl)cc1)c1c(ncn3nc(-c4ccco4)nc13)O2 (centres undefined)

Ans.
21
95.8
73.6

Qu. Could you share which growth value was measured for O=C(/C=C/c1c[nH]c2ccccc12)c1ccc(O)c(CN2CCN(c3ccc(F)cc3)CC2)c1 ?
Ans. 104
